Reported Percent Effect values for a set of molecules
System: Wolbachia pipientis
Experiment: Anti-Wolbachia Cell-Based Screen
Assay type: functional
Parameters: scale not given: in the data most compounds retested in dose-response had high values
Settings: 5 µM
In all, about 48,000 compounds went through this assay and about 13,000 (27%) showed an effect of 50% or more. Some of the results follow.
Quick note: give the figure in %, leave out the unit.

// known answers, use as guide
- molecule: "COc1ccc(-c2nc(CN3CCCC(OC)C3)c(C)o2)c(F)c1 (stereo unspecified)"
  Percent Effect, %: 6.893
- molecule: "COCc1n[nH]/c(=N\\C(=O)c2c3c(nc4onc(C)c24)CCC3)s1"
  Percent Effect, %: 76.74
- molecule: "Cc1nn(C)c2nc3c(c(C(=O)/N=c4\\[nH]nc(C(C)C)s4)c12)CCC3"
  Percent Effect, %: 112.1
- molecule: "Cc1cccc(N(CCC(N)=O)C(=O)c2cnccn2)c1"
  Percent Effect, %: -11.19
- molecule: "COCCCNC(=O)C1CN(C(=O)c2cnccn2)C1"
  Percent Effect, %: 10.57

Req: What Percent Effect value was documented for this molecule, COCC1c2nnn(CC3CC3)c2CCN1C(=O)c1cnccn1 (stereo unspecified) ?
Resp: -15.7

Req: COCCN(C(=O)c1ccccn1)c1nc2c(s1)CCc1c-2cnn1C , same question.
Resp: 88.66

Req: CCCN(C(=O)c1cnc(C)cn1)c1nc2c(s1)CCc1c-2cnn1C , same question.
Resp: 90.09
